run.description: drug combination growth inhibition, ovarian cancer – cell-based, oncology-focused library, rucaparib conditional, profiling panel (AID 1508598)
stated.conditions: patient-derived ovarian cancer cells, CellTiter-Glo viability, 144 h; at 0.0781 µM; OCI-C5x cells; without rucaparib; stronger effect = lower value
readout.label: viability (%)
Give bare numbers, in %.

INSERT INTO measurements (molecule, value_reported) VALUES
  ('O=C(Nc1ccc(OC(F)(F)F)cc1)c1sccc1NCc1ccnc2ccccc12', 113),
  ('Nc1ccc(-c2ccc3ncc4ccc(=O)n(-c5cccc(C(F)(F)F)c5)c4c3c2)cn1', 92.2),
  ('CC(C)n1nc(-c2ccc3oc(N)nc3c2)c2c(N)ncnc21', 62.2),
  ('C=CC(=O)Nc1cccc(Nc2nc(Nc3ccc(NC4CN(CCF)C4)cc3OC)ncc2C(F)(F)F)c1', 115),
  ('CCc1cc(Nc2nccc(-c3c(-c4ccc(OC)c(C(=O)Nc5c(F)cccc5F)c4)nc4ccccn34)n2)c(OC)cc1N1CCC(N2CCN(S(C)(=O)=O)CC2)CC1', 132);

State the recorded viability for every item in the following list.
1. COc1ccc(C2=NC(c3ccc(Cl)cc3)C(c3ccc(Cl)cc3)N2C(=O)N2CCNC(=O)C2)c(OC(C)C)c1 (stereo not given)
2. Cc1nc(Nc2n[nH]c3c2CN(C(=O)N[C@H](CN(C)C)c2ccccc2)C3(C)C)c2sccc2n1
3. C[C@H](NC(=O)Cc1cc(F)cc(F)c1)C(=O)N[C@@H]1C(=O)N(C)c2ccccc2-c2ccccc21

(A)
1: 124; 2: 73.2; 3: 132

----------
run.description: viability loss with induced miR-34 in A549 – imaging, A549 dox-inducible miR-34, nuclei and caspase counts, primary screen (AID 1347080)
stated.conditions: A549 miR-34 inducible, Hoechst nuclei count, 48 h; measured here: total cells with miR-34 induction; stronger effect = lower value
readout.label: cell count
One number for each entry.

Record excerpt, results attached:
INSERT INTO results (compound, value_reported) VALUES
  ('CCS(=O)(=O)N(C)[C@H]1c2cc(C#N)ccc2OC(C)(C)[C@@H]1O', 8640),
  ('CCCCC[C@H](O)/C=C/[C@H]1[C@H](O)CC(=O)[C@@H]1C/C=C\CCCC(=O)OCC(O)CO (some centres undefined)', 5540),
  ('CN1CCN(C2CCN(C(=O)Nc3cc(Oc4ccc(NC(=O)C5(C(=O)Nc6ccc(F)cc6)CC5)c(F)c4)ccn3)CC2)CC1', 3130);

Now consider a different compound.
(Q) Give the reported value of cell count for this record: CC(C)=CCC/C(C)=C/CC/C(C)=C/CC[C@]1(C)CCc2c(C)c(O)c(C)c(C)c2O1
(A) 5490

----------
run.description: drug combination growth inhibition, ovarian cancer – cell-based, oncology-focused library, rucaparib conditional, profiling panel (AID 1508598)
stated.conditions: patient-derived ovarian cancer cells, CellTiter-Glo viability, 144 h; at 0.000305 µM; OCI-C5x cells; with rucaparib 10 µM; stronger effect = lower value; 100% = cells with rucaparib alone
Active and inactive are the calls of the source.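 The calls were made as follows: active = normalized viability below 100% at a tested concentration; inactive = the rest.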
Give measured viability for each item. Keep answers brief.

INSERT INTO results (chemical_string, value_reported) VALUES
  ('O=C(Nc1cccnc1)N1CCC(Cc2cccc(Oc3ccc(C(F)(F)F)cn3)c2)CC1', '111% (inactive)');

State the recorded viability for every item in the following list.
1. CCNC(=O)c1noc(-c2cc(C(C)C)c(O)cc2O)c1-c1ccc(CN2CCOCC2)cc1
2. O=S(=O)(O)CCSSCCS(=O)(=O)O
3. Fc1cc(-c2cccc3ncc(-c4cnn(C5CCNCC5)c4)nc23)cc(F)c1CN1CCOCC1
4. COc1cc(OC2CCN(C)CC2)ccc1Nc1ncc2c(n1)n(C1CCCC1)c(=O)n2C
5. CS(=O)(=O)c1cccc(CNc2nc(Nc3ccc4c(c3)CCC(=O)N4)ncc2C(F)(F)F)c1
6. CC(C)Oc1ccc(C(=O)N[C@H](CNC(=O)CN(C)C)Cc2ccc(-c3cn4cccc([C@H](C)O)c4n3)cc2)cc1Cl
7. Cc1cc(Nc2cc(N3CCN(C)CC3)nc(/C=C/c3ccccc3)n2)n[nH]1

(A)
["136% (inactive)", "98.2% (active)", "105% (inactive)", "107% (inactive)", "98.4% (active)", "116% (inactive)", "120% (inactive)"]

(Q) Give the reported value of viability for this record: CC(C)[C@H](C(=O)Nc1ccc(C(=O)NO)cc1)c1ccccc1
(A) 112% (inactive)

----------
run.description: viability loss with induced miR-34 in A549 – imaging, A549 dox-inducible miR-34, nuclei and caspase counts, primary screen (AID 1347080)
stated.conditions: A549 miR-34 inducible, Hoechst nuclei count, 48 h; measured here: relative caspase fold change +Dox/-Dox
API: label(entry) gives YES if the entry's fold change is strictly smaller than 0.7; on equality or larger values it gives NO.

(Q) Bench note: check whether COc1ccc2c(c1)c(CC(=O)Nc1ccc(NC(C)=O)cc1)c(C)n2C(=O)c1ccc(Cl)cc1 shows fold change below 0.7
(A) NO

----------
Give measured inhibition for each item. Keep answers brief.
run.description: growth inhibition, MDA-MB-436, cell-based, BGB or cisplatin combos, synergistic combos for chromothripsis tumors (AID 1671458);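 also: cells exposed for 96 hours; 0% = vehicle DMSO and 100% = killing by high DMSO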
stated.conditions: MDA-MB-436 breast carcinoma growth inhibition, drug combinations; measured here: BGB combination; at 5 µM; stronger effect = higher value

INSERT INTO measurements (chemical_string, value_reported) VALUES
  ('CO[C@H]1/C=C/O[C@@]2(C)Oc3c(C)c(O)c4c(O)c(c(/C=N\N5CCN(C6CCCC6)CC5)c(O)c4c3C2=O)NC(=O)/C(C)=C\C=C\[C@H](C)[C@H](O)[C@@H](C)[C@@H](O)[C@@H](C)[C@H](OC(C)=O)[C@@H]1C', '-5.36%'),
  ('C=C1[C@H](CO)[C@@H](O)C[C@@H]1n1cnc2c(=O)[nH]c(N)nc21', '-0.668%'),
  ('COc1cc2ncnc(-n3nc(-c4ccccn4)nc3N)c2cc1OC', '-18.6%'),
  ('O=C(O)[C@H](Cc1c[nH]c2ccccc12)N1C(=O)c2ccccc2C1=O', '-8.16%'),
  ('CN[C@@H]1CN(c2ccc3c(=O)c(C(=O)O)cn(-c4nccs4)c3n2)C[C@H]1OC', '70.2%'),
  ('NCCOc1cc(C(=O)Nc2cc(OCCN)c3ccccc3n2)nc(C(=O)Nc2cc(OCCN)c3ccccc3n2)c1', '54.3%');

State the recorded inhibition for every item in the following list.
1. COc1ccc(C(=O)C2CCN(CC(=O)N(Cc3nc4c(c(=O)[nH]3)COCC4)CC3CC3)CC2)cc1
2. Nc1ccc(-c2ccc3ncc4ccc(=O)n(-c5cccc(C(F)(F)F)c5)c4c3c2)cn1

(A)
["-21.6%", "32.6%"]

----------
run.description: RCMB18 cell growth, single agent and combined, cisplatin and BGB IC40 combos (AID 1671462);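 also: cells exposed to compound for four days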
stated.conditions: RCMB18 medulloblastoma cells, measured here: combination with cisplatin, at 0.5 µM, stronger effect = higher value
readout.label: inhibition (%)
One number for each entry, in %.

Record excerpt, results attached:
INSERT INTO results (molecule, readout_label, units_of_measure, value_reported) VALUES
  ('Cc1cn([C@@H]2O[C@H](CO)[C@@H](O)[C@@H]2F)c(=O)[nH]c1=O', 'inhibition', '%', -19),
  ('NC1CCC(N[C@@H]2C[C@H]2c2ccccc2)CC1 (stereo partly drawn)', 'inhibition', '%', -9.08),
  ('O=c1cc(N2CCOCC2)oc2c1ccc1ccccc12', 'inhibition', '%', -18.7),
  ('O=C(/C=C/c1cccc(S(=O)(=O)Nc2ccccc2)c1)NO', 'inhibition', '%', 51.1),
  ('O=c1[nH]c([C@@H]2CCCN2)nc2c1oc1ccc(Cl)cc12', 'inhibition', '%', -15.3);

State the recorded inhibition for every item in the following list.
1. O=C(O)[C@H](Cc1c[nH]c2ccccc12)N1C(=O)c2ccccc2C1=O
2. COc1cc2ncnc(-n3nc(-c4ccccn4)nc3N)c2cc1OC
3. CO[C@H]1/C=C/O[C@@]2(C)Oc3c(C)c(O)c4c(O)c(c(/C=N\N5CCN(C6CCCC6)CC5)c(O)c4c3C2=O)NC(=O)/C(C)=C\C=C\[C@H](C)[C@H](O)[C@@H](C)[C@@H](O)[C@@H](C)[C@H](OC(C)=O)[C@@H]1C
4. CC(=O)[C@]1(N)Cc2c(O)c3c(c(O)c2[C@@H](O[C@H]2C[C@H](O)[C@H](O)CO2)C1)C(=O)c1ccccc1C3=O

(A)
[-22.8, -5.13, -14.5, 31.1]

State the recorded inhibition for every item in the following list.
1. Nc1ncnc2c1c(-c1cnc3[nH]ccc3c1)nn2C1CCCC1
2. CC(=O)Nc1nc(C)c(-c2ccc(Cl)c(S(=O)(=O)NCCO)c2)s1
3. Cc1ccc([N+](=O)[O-])cc1S(=O)(=O)N(C)/N=C/c1cnc2ccc(Br)cn12
4. c1cc(Nc2cc(C3CC3)[nH]n2)nc(Nc2ccc3nc[nH]c3c2)n1
5. CCCCc1nc2cc(/C=C/C(=O)NO)ccc2n1CCN(CC)CC

(A)
1: -23.9; 2: 0.78; 3: 58.3; 4: 76.4; 5: 47.6
